- System: K-562 leukemia
- testMethodNotes: NCI-60 one-dose screen, 48 h (100 = growth as untreated, 0 = no growth, -100 = all killed)
- conditionNotes: 10 µM unless noted
- Method: Cells are grown in 96 well plates and exposed to the test compound for 48 hours. Compounds are tested at a single concentration, which is 10^-5 M for most compounds. The reported endpoint is percent growth (GI% or GIPRCNT), where numbers from 0 - 100% represent growth inhibition, and numbers from -100% - 0 represent cell death. For example, a value of 40 represents 60% growth inhibition. A value of 0 means no net growth occurred over the course of the experiment. […]
About 83,000 compounds went through this panel and 20% of them were active in at least one assay; those are over-represented in the sample as a whole.
Answer each item with its documented growth.
Numbers only, in %.

O=c1c2cc(F)ccc2sc2c(NCCCN3CCCC3)nc3ccccc3c12 | -29.7
Cc1cccc(NC(=O)N/C(N)=N/c2nc(C)c(C)s2)c1 | 10.7
COc1ccc(C(=O)Nn2c(NCC(=O)N3c4ccccc4Sc4ccccc43)nnc2-c2ccc(O)cc2)cc1 | 114

Please go through the list and note growth for each compound.
1. CC1(C)CC(=O)C2=C(C1)N(c1ccc(OC(F)(F)F)cc1)C(N)=C(C#N)C2c1ccc(Cl)cc1 (stereo not given)
2. N#Cc1c(-c2cccc(Cl)c2)cc(-c2cccc(F)c2)[nH]c1=O
3. CCCCCCCC/C=C\CCCCCCCCOc1ccccc1CC(=O)NCC[N+](C)(C)C
4. N#Cc1nc(C#N)c(Sc2ccccc2)c(Sc2ccccc2)c1Sc1ccccc1
5. O=S(=O)(NCCCNc1cc(-c2c(-c3cccc(O)c3)nc3sccn23)ccn1)c1cccc(Cl)c1
6. COC(=O)CCC1=C(C)C2=NC1=CC1=NC(=CC3=NC(=Cc4[nH]c(/c(=C(/C)O)c4C)=C2)C(C(C)=O)=C3C)C(C)=C1CCC(=O)OC
7. O=C(NCCNc1cc(-c2cn(-c3ccccc3)nc2-c2cccc(O)c2)ccn1)Nc1ccccc1

Response line:
[86.5, 85.5, 54.6, -41.2, 25.4, 112, 35.4]

Please go through the list and note growth for each compound.
1. CN(C)CCNc1nc2ccccc2c2c1c1c(n2Cc2ccccc2)-c2ccccc2C1=O
2. c1ccc2c(c1)nc(CN1CCOCC1)n1cc(N3CCCC3)nc21
3. c1csc(-c2c3ccc(=[N+]4CCCCC4)cc-3oc3cc(N4CCCCC4)ccc23)c1
4. COC(=O)c1ccc(CSc2nnc(-c3c(C)nc4ccc(C)cn34)o2)cc1
5. Oc1c(CN2CCCC2)cc(COCc2ccc(Br)cc2)c2cccnc12

Response line:
1. -57.9
2. 67.8
3. -29.5
4. 82.6
5. 8.51

Please go through the list and note growth for each compound.
1. O=C(N/N=C/C=C/c1ccc([N+](=O)[O-])o1)c1cc2ccccc2cc1O
2. COc1cccc(-c2nn(-c3ccccc3)cc2-c2ccnc(NCCNC(=O)c3ccccc3)c2)c1
3. NC(=O)c1ccc[n+](Cc2ccc(Cl)cc2Cl)c1
4. O=C(NC(Cc1nnc2n(Cc3ccccc3)c(=O)c3c4c(sc3n12)CCCC4)c1ccc(Cl)cc1)c1ccccc1 (stereo not given)
5. O=C(/C=C/c1ccc(Cl)nc1)c1ccc(Cl)cc1Cl

Response line:
4.52
38.2
92.9
91.9
7.65
